Measured values drawn from PubChem BioAssay (NCI) for this set.

- System: PC-3 prostate
- TEST_DETAILS: NCI-60 one-dose screen, 48 h
- SETTINGS: 10 µM unless noted
About 83,000 compounds went through this panel and 20% of them were active in at least one assay; those are over-represented in the sample as a whole. Active and inactive are the calls of the source. How the source made its calls: active means growth percent below 10; inactive means the rest.
Write down one outcome, taken from active, inactive

Solved entries:
{"GIVEN_SMILES": "O=C(c1ccccc1)c1c(/C=C/c2ccccc2)nc2ccccc2c1/C=C/c1ccc(Br)cc1", "ASSAY_SYSTEM": "PC-3 prostate", "CLASS_ASSIGNMENT": "inactive"}
{"GIVEN_SMILES": "N#C/C(=C\\c1ccc(Br)cc1)n1nnc2cc(F)c(F)cc21", "ASSAY_SYSTEM": "PC-3 prostate", "CLASS_ASSIGNMENT": "inactive"}
{"GIVEN_SMILES": "Cc1cc(N2CCCC2)nc(NCc2cc(Nc3ccnc4cc(Cl)ccc34)ccc2F)n1", "ASSAY_SYSTEM": "PC-3 prostate", "CLASS_ASSIGNMENT": "active"}

[Q] Write down the call the test reported for this compound. Item: "N#Cc1nc(C#N)c(Sc2ccccc2)c(Sc2ccccc2)c1Sc1ccccc1"
[A] inactive

[Q] # fetch the recorded call for "O=c1[nH]c2ccccc2n1C1CCN(CCOc2ccccc2)CC1" here
[A] inactive

[Q] // return assay outcome for "N#C/C(=C\c1ccc2c(c1)OCO2)n1nnc2cc(F)c(F)cc21"
[A] inactive

[Q] Fill in: this test's call for "O=C(CSc1nnc(-c2ccc(NC(=O)c3cccnc3)cc2)o1)N[C@@H](Cc1ccc(O)cc1)C(=O)O" is ___
[A] inactive

[Q] What classification did "c1c[nH]c(CNC2CCCCC2)c1" end up with in this test?
[A] inactive
